- Experiment description: mitochondrial membrane potential change in A549 cells, profiling panel, cell-based, JC-1 fluorescence, basal, 24 h, 100 nL (AID 1138);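 note: A549 lung adenocarcinoma cells under basal conditions with no added stimulus; test concentration not given here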
- Stated conditions: higher = more signal
# cutoff 0.7 applies to z-score; >= gives Satisfied, < gives Not satisfied

Compound	Category label
O=C1C2C=CC(C(O)C3CCCCC3)N(Nc3ccc([N+](=O)[O-])cc3)C2C(=O)N1c1ccccc1 (stereo not given)	Not satisfied
Cc1ccc(S[C@]2(C(=O)NCCN3CCOCC3)CC(=O)N(Cc3ccccc3Cl)[C@@H]2c2ccc(CO)cc2)cc1	Not satisfied
C=CCC(OC(C)=O)[C@@H]1[C@@H](N(Cc2ccc(-c3cccc(C(F)(F)F)c3)o2)C(=O)c2ccc(-c3ccccc3)cc2)c2cc(OCCCO)ccc2N1C(=O)c1ccc(-c2ccccc2)cc1 (stereo not given in full)	Satisfied

Challenge: Item "CC(C)(C)C(=O)N[C@@H](c1ccc(Cl)cc1)[C@]1(C)C[C@H]1C1CCCCC1" with z-score of 0.7 or above?
Response given: Satisfied

Challenge: Kindly determine if z-score recorded for [N-]=[N+]=Nc1ccccc1C[C@]1(C(=O)NCC(O)CO)N=C(c2ccc(OCCCO)cc2)O[C@H]1c1ccccc1N=[N+]=[N-] (stereo not given in full) is above or exactly 0.7.
Response given: Not satisfied

Challenge: Could you tell me if the measured z-score of "COCC(=C=CC[C@H](O)c1ccccc1OCCO)C[C@H](O)c1cc(Cl)cc(Cl)c1O" reaches 0.7 or more?
Response given: Not satisfied

Challenge: hey, is z-score for this one >= 0.7? CC1CC/C=C\[C@H]2OC34C=CCN(c5ccc(Cl)cc5)C(=O)[C@H]3N(CCO)C(=O)[C@]4(C)C2C(=O)O1 (stereo not given in full)
Response given: Not satisfied

Challenge: Form field: z-score at least 0.7? Entry: "COCCOC(=O)N1C(=O)[C@@]2(c3cc(C#CCCO)ccc31)[C@H](C(=O)Nc1nc3ccccc3s1)[C@H]1C(=O)O[C@H](c3ccccc3)[C@H](c3ccccc3)N1[C@@H]2c1ccc(OCCO)cc1"
Response given: Not satisfied

Challenge: Kindly determine if z-score recorded for "CC(C)C[C@@H]1NC(=O)[C@@H]2C[C@H](C(=O)NCCCCCN)[C@H](c3cccc(OCCO)c3)N2C1=O" is above or exactly 0.7.
Response given: Satisfied

Challenge: Entry CCCCN1CC=CC23O[C@@H]4/C=C\CCC(C)OC(=O)C4[C@H]2C(=O)N(CCCCCO)[C@@H]3C1=O (stereo not given in full) : is its z-score no less than 0.7?
Response given: Not satisfied

* * *

- Experiment description: inhibitors of hydroxyurea-induced Chk1 phosphorylation, primary screen, imaging, HeLa, phospho-Chk1 antibody, percent positive cells (AID 1186)
- Stated conditions: hydroxyurea-induced phospho-Chk1 immunofluorescence imaging, higher = more signal
Binary call on z-score: yes (1) from 0.08 upward, no (0) beneath that.

Illustrative cases are given below, each with its answer.
                                   compound  category_label
0  [N-]=[N+]=Nc1ccccc1C[C@]1(C(=O)NCC(O)CO)N=C(c2ccc(OCCCO)cc2)O[C@H]1c1ccccc1N=[N+]=[N-] (some centres not stated)          no (0)
1  CCCCCC1=C2CNC(CCC)(C(=O)OC)C=C2C(C)C1=O (configuration not stated)         yes (1)
2  COc1ccc(COC2OC[C@]3(C)[C@H]4C5=C(CN3C(=O)OC(C)(C)C)[C@H](C)C(CO)C(CO)C5CC[C@@H]24)cc1 (some centres not stated)         yes (1)

Challenge: // inclusive: z-score at least 0.08? input: "CCOC(=O)[C@H]1C/C=C/C[C@H](C(=O)OCC)C(=O)O[C@H]2[C@@H](OC)O[C@H](CO)[C@@H](OC(=O)Nc3cccc(F)c3)[C@@H]2OC1=O"
Response given: no (0)

Challenge: I'd appreciate it if you could say whether "COC(=O)[C@@]1(Cc2ccccc2)[C@H]2c3cc(C(=O)N(C)C)n(CCSCCO)c3C[C@H]2CN1C(=O)c1ccccc1" has z-score at least equal to 0.08.
Response given: yes (1)

Challenge: I'd appreciate it if you could say whether "CCCCc1cn(C[C@H](Cc2ccccc2)NC(=O)N[C@H](CO)CCc2oc(C(C)=O)c(C(=O)OC)c2C(=O)OC)nn1" has z-score at least equal to 0.08.
Response given: no (0)
